# Test Protocol: Primary qHTS for inhibitors of nuclear receptor binding SET domain protein 2 (NSD2) in an isogenic RCH-ACV NSD2 p.E1099K mutant (9B) (AID 1645876); also: nearly all actives have a fitted effect of over 70% in size; also: potency is read from the fitted curve at half-maximal effect
# Test Context: RCH-ACV (leukaemia line) NSD2 E1099K (9B) viability, CellTiter-Glo, 72 h; series mostly up to 44.9 µM
Results filed as inconclusive are left out. Calls of active or inactive are those of the source. Calls follow the shape of the dose curve; as a rule, active = well fitted inhibition curve with a large enough effect; inconclusive = small, poorly fitted or top-dose-only effect; inactive = flat fitted curve, though single readings scatter.
Parameter Measured: Potency

Below, each entry is followed by its recorded Potency result.
1. Cc1cc(N(C)C)ccc1-c1nc2ccc(-c3nc4ccc(N5CCN(C)CC5)cc4[nH]3)cc2[nH]1 ... 578 nM (active)
2. O=C(/C=C\c1ccc(O)cc1)N[C@@H](Cc1ccc(O)cc1)C(=O)O ... inactive
3. O=C(NCc1cccc(O)c1)c1cc2cc(F)ccc2[nH]1 ... 18300 nM (active)
4. COc1cc(N2CCOCC2)ccc1Nc1ncc(Cl)c(Nc2ccccc2NS(C)(=O)=O)n1 ... 1150 nM (active)
5. CCCC1(c2ccccc2)NC(=O)N(CC(=O)N(C)Cc2c(F)cccc2Cl)C1=O (configuration not stated) ... inactive
6. CC(C)c1ccc(CO)cc1O[C@@H]1O[C@H](CO)[C@@H](O)[C@H](O)[C@H]1O ... inactive

Task: If you can, please state the reported Potency value of "O=C(OC[C@H]1O[C@H](O[C@]2(CO)O[C@H](CO)[C@@H](O)[C@@H]2O)[C@H](O)[C@@H](O)[C@@H]1O)c1ccccc1" .
Result: inactive

Task: Sample "C[C@@H]1C(=O)OC[C@H]2C(C(=O)O)=C[C@@H]3CC(C)(C)C[C@]312" — what was its Potency?
Result: inactive

Task: Requested read-out: Potency. Entry: "COc1ccc(N2CCOCC2)c2sc(NC(=O)N3CCC(C)(O)CC3)nc12"
Result: inactive

Task: Reported Potency for "C[C@H]1C(=O)N2c3ccccc3[C@@]3(O)C[C@@H]4C(=O)N[C@](C)(c5nc6ccccc6c(=O)n54)N1[C@@H]23" : what is it?
Result: inactive

Task: Need Potency, item "C[C@@H]1CN(Cc2ncccn2)C[C@H]1c1nc2c(cnn2C2CCOCC2)c(=O)[nH]1"
Result: inactive

Task: // lookup Potency for "CC(C)(C#N)c1ccc(N2C(=O)OCc3cnc4ccc(-c5cnc6ccccc6c5)cc4c32)cc1"
Result: 728 nM (active)

* * *

# Measurement Target: Guanidinoacetate N-methyltransferase (Homo sapiens) (UniProt Q14353)
# Test Protocol: Confirmatory Screen for Target Class Profiling of Small Molecule Inhibitors of Methyltransferases (AID 1745852); also: % is scaled to controls: 0 for no effect and ±100 for the full control effect
# Test Context: MTase-Glo luminescence, SAH detection, recombinant enzyme; at 57.3 µM (top of the series) unless noted
Field: activity change, negative = inhibition. Provide a value for each of the compounds that follow.

Task: Entry "N#Cc1ccc2[nH]cc(CCCCN3CCN(c4ccc5oc(C(N)=O)cc5c4)CC3)c2c1" has what activity change, negative = inhibition?
Result: -4.3%

Task: Would you kindly share the measured activity change, negative = inhibition for C=C(C(=O)O)C1CC(O)C2(C)CCCC(=C)C2C1 (stereo unspecified) ?
Result: 0%

Task: Which measured activity change, negative = inhibition value corresponds to CC1CCC2(CO)C(C(=O)O)=CCCC2C1(C)CCc1ccoc1 (stereo unspecified) ?
Result: 0%

Task: Consider the compound shown here: "CCOC(=O)CCN(C(=O)c1ccc2c(c1)nc(CNc1ccc(C(=N)N)cc1)n2C)c1ccccn1" What is its recorded activity change, negative = inhibition?
Result: 2.12%

Task: activity change, negative = inhibition for "C=C(F)c1sc(CNCCCNc2cc(=O)c3ccccc3[nH]2)c(C)c1Br" ?
Result: -1.39%

Task: // activity change, negative = inhibition lookup, key: "c1cc(OCCCN2CCCCC2)ccc1CN1CCCCC1"
Result: -2.14%

* * *

# System: KB-3-1
# Test Protocol: Cytotoxic Profiling of Annotated Libraries Using Quantitative High-Throughput Screening (AID 1296008); also: nearly all actives have a fitted effect of over 60% in size
# Test Context: Five cell lines viability, CellTiter-Glo ATP luminescence, 48-72 h
Results filed as inconclusive are left out. Calls of active or inactive are those of the source. Calls follow the shape of the dose curve; as a rule, active = well fitted inhibition curve with a large enough effect; inconclusive = small, poorly fitted or top-dose-only effect; inactive = flat fitted curve, though single readings scatter.
Just give me one of these, please: class 1 (active), class 0 (inactive)

Task: Short answer needed: outcome of this test for "C=C1C(=O)O[C@@H]2C/C(C)=C\C(=O)/C=C(\C)[C@@H](OC(=O)/C(C)=C\C)[C@H](O)[C@@H]12" ?
Result: class 1

Task: Assay result, entry C[C@@H]1O[C@@H](O[C@H]2[C@H](O)[C@@H](O[C@@H]3O[C@H](CO)[C@@H](O)[C@H](O[C@@H]4O[C@H](CO)[C@@H](O)[C@H](O)[C@H]4O)[C@H]3O)[C@H](O[C@H]3CC[C@@]4(C)C(=CC[C@@H]5C4CC[C@@]4(C)C5C[C@@H]5OC6(CC[C@@](C)(CO[C@@H]7O[C@H](CO)[C@@H](O)[C@H](O)[C@H]7O)O6)[C@@H](C)[C@@H]54)C3)O[C@@H]2CO)[C@H](O)[C@H](O)[C@H]1OC1OC(CO)C(O)C(O)C1O (stereo not given in full) — outcome?
Result: class 0

Task: For C=C1C(=O)OC2CC3(C)C(CC12)C(C)=CC(O)C3OC(C)=O (stereo not given) , what call appears in the results of this test?
Result: class 0

Task: Hey, what did the test say about "COc1cc(/C=C/C=O)cc(OC)c1O[C@@H]1O[C@H](CO)[C@@H](O)[C@H](O)[C@H]1O" ?
Result: class 0

Task: Recorded test outcome, item "CC(C)c1ccc(CO)cc1O[C@@H]1O[C@H](CO)[C@@H](O)[C@H](O)[C@H]1O"
Result: class 0

Task: Tell me the recorded outcome of this test for "COc1ccc(N(C)c2nc(C)nc3ccccc23)cc1" .
Result: class 1

Task: What did this assay record as the result for "CCOc1cc(N2CCC(O)CC2)ccc1Nc1ncc2c(n1)N(C1CCCC1)CCC(=O)N2C" ?
Result: class 1

Task: Call for entry "COc1cc2nc(N3CCC(N4CCCCC4)CC3)nc(NC3CCCCCC3)c2cc1OC" :
Result: class 1

Task: Could you check what this test reported for C/C(=C\CCC(C)CCO)C(=O)OC1(C)CCC2C(C(=O)O)=COC(OC3OC(CO)C(O)C(O)C3O)C21 (stereo not given) ?
Result: class 0

Task: I'd appreciate the recorded outcome for "Cc1cc(Nc2ncc3cc(-c4c(Cl)cccc4Cl)c(=O)n(C)c3n2)ccc1F" from this test.
Result: class 1

Task: Recorded test call requested for C=C(C)C1CCC2(C(=O)O[C@@H]3O[C@H](CO[C@@H]4O[C@H](CO)[C@@H](O)[C@H](O)[C@H]4O)[C@@H](O)[C@H](O[C@@H]4O[C@@H](C)[C@H](O)[C@@H](O)[C@H]4O)[C@H]3O)CCC3(C(=O)O)C(CCC4C5(C)CCC(O)C(C)(C)C5CCC43C)C12 (stereo not given in full)
Result: class 0

Task: Field: outcome | Entry: CC1(C)CCCC2(C)C1C(O)C=C(CO)C2(O)CO (stereo not given)
Result: class 0

Task: What did the test return for "CC(C)S(=O)(=O)N[C@H]1CCOC[C@@H]1c1ccc(-c2ccc(C#N)s2)cc1" ?
Result: class 0

Task: # lookup: test call for "Cc1ccc(-c2ccc3c(ccc4sc5c(c43)NC[C@@H](C)NC5=O)n2)cn1"
Result: class 0

Task: I'd appreciate the recorded outcome for "COc1c/c(=C2\C=c3ccccc3=N2)[nH]/c1=C\c1[nH]c(C)cc1C" from this test.
Result: class 1

* * *

# Tested on: CRL-7250
# Test Protocol: Cytotoxic Profiling of Annotated Libraries Using Quantitative High-Throughput Screening (AID 1296008); also: nearly all actives have a fitted effect of over 60% in size; as to max response: % is scaled to controls: 0 for no effect and ±100 for the full control effect
# Test Context: Five cell lines viability, CellTiter-Glo ATP luminescence, 48-72 h; stronger effect = lower value
Records with an inconclusive call do not appear.
Parameter Measured: max response (%)
Dear colleague, please return just the value in %, with no unit written.

Task: max response for CC(C)C(C#N)O[C@@H]1O[C@H](CO[C@@H]2O[C@@H](C)[C@H](O)[C@@H](O)[C@H]2O)[C@@H](O)[C@H](O)[C@H]1O (some centres not stated) ?
Result: -4.82

Task: Request the reported max response associated with Cc1cc2c(F)c(Oc3ncnn4cc(OCC(C)O)c(C)c34)ccc2[nH]1 (configuration not stated)
Result: -24.6

Task: Give its max response value. Item: "C[C@@H]1C[C@@H](O)[C@@]23CO[C@@H](O)[C@@H]2CCC[C@@H]3[C@@]12C[C@@H](c1ccoc1)OC2=O"
Result: 0.0668

Task: # max response lookup, item "CC1=CC(=O)CC(C)(C)[C@@]1(O)CC[C@@H](C)O[C@@H]1O[C@H](CO)[C@@H](O)[C@H](O)[C@H]1O"
Result: 0.369

Task: max response lookup needed for NC1CCCCN(c2c(F)cc3c(=O)c(C(=O)O)cn(C4CC4)c3c2Cl)C1 (configuration not stated) , thanks.
Result: 3.42

Task: Please give the measured max response for this molecule: CC(C)=CCC[C@](C)(O)[C@H]1CC[C@]2(C)[C@@H]1[C@H](O)CC1[C@@]3(C)CC[C@H](O)C(C)(C)[C@@H]3[C@@H](O[C@@H]3O[C@H](CO)[C@@H](O)[C@H](O)[C@H]3O[C@@H]3O[C@H](CO)[C@@H](O)[C@H](O)[C@H]3O)C[C@]12C (some centres not stated)
Result: -7.72

Task: Give the measured max response of COc1cc(O)c([C@@H](CC(=O)N2CC(C)CC(C)C2)c2ccc3c(c2)OCO3)c(OC)c1 (some centres not stated) .
Result: -6.18

These entries and their values trace back to PubChem BioAssay (NCATS).
